Hey, just so you know, these numbers are from ChEMBL document CHEMBL5030543.

target: Beta-secretase 1 (Homo sapiens, UniProt P56817); test: Inhibition of BACE1 (unknown origin) using APP harboring Swedish Lys/Met mutant-derived peptide as substrate by FRET assay
Sequence (P56817 whole entry): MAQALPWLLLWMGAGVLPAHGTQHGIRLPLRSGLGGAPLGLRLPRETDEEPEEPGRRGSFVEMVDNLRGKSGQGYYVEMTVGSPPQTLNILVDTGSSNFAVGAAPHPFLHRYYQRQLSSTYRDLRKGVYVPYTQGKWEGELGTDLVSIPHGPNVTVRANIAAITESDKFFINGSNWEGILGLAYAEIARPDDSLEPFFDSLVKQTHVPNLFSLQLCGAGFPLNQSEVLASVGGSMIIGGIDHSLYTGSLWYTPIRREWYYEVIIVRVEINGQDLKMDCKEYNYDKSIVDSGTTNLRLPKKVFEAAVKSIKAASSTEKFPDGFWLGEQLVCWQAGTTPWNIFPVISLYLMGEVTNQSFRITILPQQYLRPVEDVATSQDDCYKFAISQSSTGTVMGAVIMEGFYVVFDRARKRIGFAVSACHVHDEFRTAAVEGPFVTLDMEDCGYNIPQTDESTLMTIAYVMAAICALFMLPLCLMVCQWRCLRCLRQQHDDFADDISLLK
pIC50: −log10 of the molar value.
Observed Property: pIC50

[a] C[C@H]1SC(N)=N[C@](C)(c2cc(NC(=O)c3cc4c(cn3)OCCC4)ccc2F)[C@H]1F
[b] C[C@H]1SC(N)=N[C@](C)(c2cc(NC(=O)c3ccc(OCF)cn3)ccc2F)[C@H]1F
[c] C[C@H]1SC(N)=N[C@](C)(c2cc(NC(=O)c3cc4c(cn3)CCCO4)ccc2F)[C@H]1F
Request: Please rank the 3 items above; order by pIC50, the highest number leading. # format: label list in the order the request specifies
Result: b, c, a
(b: 8.39, c: 7.74, a: 7.33)
